- Target desc: Growth factor receptor-bound protein 2 (Homo sapiens)
- Sequence (P62993 whole entry, the tested form may be a part): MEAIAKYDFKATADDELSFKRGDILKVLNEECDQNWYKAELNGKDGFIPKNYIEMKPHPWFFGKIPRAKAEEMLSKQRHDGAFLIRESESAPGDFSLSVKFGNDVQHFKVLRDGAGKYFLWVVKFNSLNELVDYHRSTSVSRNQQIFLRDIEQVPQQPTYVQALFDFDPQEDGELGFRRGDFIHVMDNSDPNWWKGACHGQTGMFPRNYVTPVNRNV
- Measurement protocol: Inhibition of SH2 domain of GRB2 in human MDA-MB-231 cells
- Format: cell-based
pIC50: −log10 of the molar value.
Measured quantity: pIC50

pIC50 measured on Cc1ccc2c(ccn2C[C@@H]2C/C=C/[C@H](c3ccc(CP(=O)(O)O)cc3)[C@H](CC(=O)O)C(=O)NC3(CCCCC3)C(=O)N[C@@H](CC(N)=O)C(=O)NC2)c1 = < 5.00

###

- Measurement protocol: Reversible inhibition of HCV NS3 protease
- Set-up: species or system Hepacivirus hominis
For each entry below, report its pKi value.
The meaning of pKi here: minus log10 of the concentration in molar units.

pKi measured on CCC[C@H](NC(=O)[C@@H]1[C@H]2CCC[C@H]2CN1C(=O)[C@@H](NC(=O)[C@@H](NC(=O)c1cnccn1)C1CCCCC1)C(C)(C)C)C(=O)C(=O)NC1CC1 = 8.15

pKi measured on CN(C)C(=O)[C@@H](NC(=O)CNC(=O)C(=O)[C@@H]1CCCCCCCCCC[C@H](NC(=O)NC(C)(C)C)C(=O)N2C[C@H]3[C@@H]([C@H]2C(=O)N1)C3(C)C)c1ccccc1 = 8.22
